- assay-text: in vivo
- experimental-setup: male, Wistar Han, rat, in vivo; day 49; single IM Example 1B 62 mg/kg; read-out: Mean concentration of Example 1B
measurement-name: concentration at 49 day
Put down the number, then write its unit next to it.

Ask: Would you kindly share the measured concentration at 49 day for C#C[C@]1(COP(=O)(N[C@@H](Cc2ccccc2)C(=O)OCCCCCCCCCCCCCCCCCCCCCC)Oc2ccccc2)O[C@@H](n2cnc3c(N)nc(F)nc32)C[C@@H]1O (single isomer, unassigned) ?
Result: 0.912 ng/mL

====

- assay-text: in vivo
- experimental-setup: male, Wistar Han, rat, whole blood, intramuscular; day 7; single IM Example 11A 20 mg/kg equivalent of EFdA; read-out: Mean concentration of Example 11A
measurement-name: concentration at 7 day (ng/mL)
Numbers only, in ng/mL.

Ask: // returns reported concentration at 7 day for input C#C[C@]1(COP(=O)(N[C@@H](Cc2ccccc2)C(=O)OCCCCCCCCCCCC)OCC(=O)OCCCCCCCCCCCC)O[C@@H](n2cnc3c(N)nc(F)nc32)C[C@@H]1O (single isomer, unassigned) [Example 11A]
Result: 6.93

====

- assay-text: in vivo
- experimental-setup: male, Wistar Han, rat, in vivo; day 1; single IM Example 40A 60 mg/kg; read-out: Mean concentration of Example 40A
measurement-name: concentration at 1 day
Express the reported value numerically, then name its unit.

Ask: Look at this compound and give its reported concentration at 1 day. C#C[C@]1(COP(=O)(N[C@@H](Cc2cc(F)cc(F)c2)C(=O)OCCCCCCCCCCCCCCCCCC)Oc2ccccc2)O[C@@H](n2cnc3c(N)nc(F)nc32)C[C@@H]1O (single isomer, unassigned) [Example 40A]
Result: 59.2 ng/mL

====

- assay-text: EFdA Rat PK Studies (subcutaneous and intramuscular groups), plasma concentration by LC-MS/MS
- Type: in vivo, Wistar Han rats
- experimental-setup: male, Wistar Han, rat, plasma, intramuscular, 20 mg/kg, 4 hr; IM 20 mg/kg; plasma; read-out: Assayed Concentrations of EFdA, individual rats
measurement-name: concentration at 4 h (ng/mL)
One number for each entry, in ng/mL.

Ask: Tell me the measured concentration at 4 h of "C#C[C@]1(CO)O[C@@H](n2cnc3c(N)nc(F)nc32)C[C@@H]1O" , please.
Result: 662

====

- assay-text: in vivo
- experimental-setup: male, Wistar Han, rat, in vivo; day 42; single IM Example 1A 20 mg/kg; read-out: Mean concentration of Example 1A
measurement-name: concentration at 42 day (ng/mL)
Answers are plain numbers, in ng/mL.

Ask: Item C#C[C@]1(COP(=O)(N[C@@H](Cc2ccccc2)C(=O)OCCCCCCCCCCCCCCCCCCCCCC)Oc2ccccc2)O[C@@H](n2cnc3c(N)nc(F)nc32)C[C@@H]1O (single isomer, unassigned) has what recorded concentration at 42 day?
Result: 0.633

====

- assay-text: in vivo
- experimental-setup: male, Wistar Han, rat, in vivo; day 14; single IM Example 19A 55 mg/kg; read-out: Mean concentration of Example 19A
measurement-name: concentration at 14 day
I'd appreciate it if you included the unit after the number.

Ask: Entry C#C[C@]1(COP(=O)(N[C@@H](Cc2ccccc2)C(=O)OCCCCCCCCCCCCCCC)Oc2ccccc2)O[C@@H](n2cnc3c(N)nc(F)nc32)C[C@@H]1O (single isomer, unassigned) [Example 19A] has what concentration at 14 day?
Result: 3.06 ng/mL

====

- assay-text: in vivo
- experimental-setup: male, Wistar Han, rat, in vivo; day 49; single IM Example 40A 60 mg/kg; read-out: Mean concentration of Example 40A
- Source text: General Protocol for Prodrugs Rat PK Studies Conducted at ChemPartner, China A total of three naïve male Wistar Han rats, 200-250 g, were received from Beijing VR Laboratory Animal Co. LTD. Following an acclimation period, the animals were assigned to the study based on acceptable health as determined by a staff veterinarian and catheter patency. Fasting of the animals before or after dosing was not required. […]
measurement-name: concentration at 49 day (ng/mL)
Give bare numbers, in ng/mL.

Ask: Returns the measured concentration at 49 day for the input compound. Input: C#C[C@]1(COP(=O)(N[C@@H](Cc2cc(F)cc(F)c2)C(=O)OCCCCCCCCCCCCCCCCCC)Oc2ccccc2)O[C@@H](n2cnc3c(N)nc(F)nc32)C[C@@H]1O (single isomer, unassigned) [Example 40A]
Result: 11.7

====

- assay-text: in vivo
- experimental-setup: male, Wistar Han, rat, in vivo; day 63; single IM Example 43A 60 mg/kg; read-out: Mean concentration of Example 43A
measurement-name: concentration at 63 day (ng/mL)
Answers are plain numbers, in ng/mL.

Ask: // query concentration at 63 day value for entry C#C[C@]1(COP(=O)(N[C@@H](Cc2ccccc2)C(=O)OCCCCCCCCCCCCCCCCCCCC)Oc2ccccc2)O[C@@H](n2cnc3c(N)nc(F)nc32)C[C@@H]1O (single isomer, unassigned) [Example 43A]
Result: 12.5

====

- assay-text: in vivo
- experimental-setup: male, Wistar Han, rat, in vivo; day 14; single IM Example 40A 60 mg/kg; read-out: Mean concentration of Example 40A
measurement-name: concentration at 14 day (ng/mL)
Give bare numbers, in ng/mL.

Ask: Consider the compound shown here: C#C[C@]1(COP(=O)(N[C@@H](Cc2cc(F)cc(F)c2)C(=O)OCCCCCCCCCCCCCCCCCC)Oc2ccccc2)O[C@@H](n2cnc3c(N)nc(F)nc32)C[C@@H]1O (single isomer, unassigned) [Example 40A] What is its recorded concentration at 14 day?
Result: 11.2

====

- assay-text: in vivo
- experimental-setup: male, Wistar Han, rat, in vivo; day 63; single IM Example 37A 56 mg/kg; read-out: Mean concentration of Example 37A
- Description: General Protocol for Prodrugs Rat PK Studies Conducted at ChemPartner, China A total of three naïve male Wistar Han rats, 200-250 g, were received from Beijing VR Laboratory Animal Co. LTD. Following an acclimation period, the animals were assigned to the study based on acceptable health as determined by a staff veterinarian and catheter patency. Fasting of the animals before or after dosing was not required. […]
measurement-name: concentration at 63 day (ng/mL)
One number for each entry, in ng/mL.

Ask: Could you share which concentration at 63 day value was measured for C#C[C@]1(COP(=O)(N[C@@H](C)C(=O)OC(CCCCCCCCCC)CCCCCCCCCC)Oc2ccccc2)O[C@@H](n2cnc3c(N)nc(F)nc32)C[C@@H]1O (single isomer, unassigned) [Example 37A] ?
Result: 4.46

====

- assay-text: in vivo
- experimental-setup: male, Wistar Han, rat, in vivo; day 35; single IM Example 37A 56 mg/kg; read-out: Mean concentration of Example 37A
measurement-name: concentration at 35 day (ng/mL)
Answers are plain numbers, in ng/mL.

Ask: Using the record for C#C[C@]1(COP(=O)(N[C@@H](C)C(=O)OC(CCCCCCCCCC)CCCCCCCCCC)Oc2ccccc2)O[C@@H](n2cnc3c(N)nc(F)nc32)C[C@@H]1O (single isomer, unassigned) [Example 37A] , report its concentration at 35 day.
Result: 4.95

====

- assay-text: EFdA Rat PK Studies (subcutaneous and intramuscular groups), plasma concentration by LC-MS/MS
- Type: in vivo, Wistar Han rats
- experimental-setup: male, Wistar Han, rat, plasma, sc, 20 mg/kg, 0.5 hr; SC 20 mg/kg; plasma; read-out: Assayed Concentrations of EFdA, Mean
measurement-name: concentration at 0.5 h (ng/mL)
Numbers only, in ng/mL.

Ask: Entry under review: "C#C[C@]1(CO)O[C@@H](n2cnc3c(N)nc(F)nc32)C[C@@H]1O" . Reported concentration at 0.5 h?
Result: 1280

====

- assay-text: in vivo
- experimental-setup: male, Wistar Han, rat, in vivo; day 21; single IM Example 2B 20 mg/kg; read-out: Mean concentration of Example 2B
measurement-name: concentration at 21 day (ng/mL)
Numbers only, in ng/mL.

Ask: Which concentration at 21 day is reported for this compound? C#C[C@]1(COP(=O)(N[C@@H](Cc2ccccc2)C(=O)OCCCCCCCCCCCCCCCC)Oc2ccccc2)O[C@@H](n2cnc3c(N)nc(F)nc32)C[C@@H]1O (single isomer, unassigned)
Result: 1.33

====

- assay-text: in vivo
- experimental-setup: male, Wistar Han, rat, whole blood, intramuscular; day 56; single IM Example 11A 20 mg/kg equivalent of EFdA; read-out: Mean concentration of Example 11A
measurement-name: concentration at 56 day (ng/mL)
Numbers only, in ng/mL.

Ask: // returns reported concentration at 56 day for input C#C[C@]1(COP(=O)(N[C@@H](Cc2ccccc2)C(=O)OCCCCCCCCCCCC)OCC(=O)OCCCCCCCCCCCC)O[C@@H](n2cnc3c(N)nc(F)nc32)C[C@@H]1O (single isomer, unassigned) [Example 11A]
Result: 0.95

The values you see were collected from patent US20230151049A1.
